# assay-notes: qHTS assay to identify small molecule antagonists of the thyroid receptor (TR) signaling pathway - cell viability counter screen (AID 743064); note: nearly all actives have a fitted effect of over 50% in size; note: potency is the fitted concentration of half-maximal effect
# measurement-setup: GH3.TRE-Luc viability, CellTiter-Fluor, 24 h; series mostly up to 70.3 µM
Results filed as inconclusive are left out. Calls of active or inactive are those of the source. Calls come from the whole dose curve; as a rule, active = well fitted cell-killing curve with a large enough effect in the repeat runs; inconclusive = weak or mixed curves, or effect the other way; inactive = no such curve, though single readings can be large or run the other way.

compound	Potency
CC(C)c1nnc2ccc(-c3ocnc3-c3cc(F)ccc3F)cn12	inactive
CC(C)(C)C(=O)O	inactive
CC(=O)Nc1ccccc1C	inactive
Cc1ccnc2ccccc12	inactive
CCC(=O)Oc1ccc(/C(CC)=C(\CC)c2ccc(OC(=O)CC)cc2)cc1	54.5 µM (active)
CCC1(C)CC(=O)NC1=O (centres undefined)	inactive
O=C(CS)OCCOC(=O)CS	inactive
CC(=O)[C@H]1CC[C@H]2[C@@H]3C[C@H](C)C4=CC(=O)CC[C@]4(C)[C@H]3[C@@H](O)C[C@]12C	inactive
CCOC(=O)[C@@H](C)Oc1ccc(Oc2nc3ccc(Cl)cc3o2)cc1	inactive
CCCCCCOC(=O)CCCCCCCC(=O)OCCCCCC	inactive
CC1CC(=O)NN=C1c1ccc(NCC(C)(C)NCC(O)COc2cc(Cl)ccc2C#N)cc1 (centres undefined)	inactive
CNC(=O)N(c1ccccc1)c1ccccc1	inactive
CC(C)CCCCCOC(=O)CCCCC(=O)OCCCCCC(C)C	inactive
Cc1cc(C(=C2C=CC(=Nc3ccc(S(=O)(=O)O)cc3S(=O)(=O)O)C=C2)c2ccc(Nc3ccc(S(=O)(=O)O)cc3)cc2)ccc1N	inactive
C(=C\c1ccccc1)/CN1CCN(C(c2ccccc2)c2ccccc2)CC1	12.7 µM (active)
O=C(Nc1ccccc1)Nc1ccccc1	inactive
CC1CN(c2cc3c(cc2F)c(=O)c(C(=O)O)cn3-c2ccc(F)cc2F)CCN1 (centres undefined)	inactive
COC(=O)CC(=O)C(C)(C)C	inactive
O=C(C(=O)c1ccccc1)c1ccccc1	inactive
CCCCC/C(=C\c1ccccc1)CO	48 µM (active)
Cc1ccc(/C=N/n2c(-c3ccccc3)csc2=S)cc1	inactive
CN1CCN(CCCN2c3ccccc3Sc3ccc(S(=O)(=O)N(C)C)cc32)CC1	14.3 µM (active)
OCCSc1ccccc1	inactive
CC(=O)Oc1ccc2c(c1)CC[C@@H]1[C@@H]2CC[C@]2(C)[C@@H](O)CC[C@@H]12	26.6 µM (active)
CC1CC(O)CC(C)(C)C1 (centres undefined)	inactive
COCc1c(C(C)C)nc(C(C)C)c(/C=C/[C@@H](O)C[C@@H](O)CC(=O)O)c1-c1ccc(F)cc1	inactive
O=C(O)c1cccc(O)c1	inactive
CN(C)CCOC1=Cc2ccccc2Sc2ccc(Cl)cc21	10.6 µM (active)
CCCC1C(CC)=CC(CC)=CN1c1ccccc1 (centres undefined)	inactive
Cc1occc1C(=O)Nc1ccc(C(=O)N2CCC(F)(F)/C(=C\C(=O)N3CCC(N4CCCCC4)CC3)c3ccccc32)cc1	17 µM (active)
Cc1nc2ccccn2c(=O)c1CCN1CCC(C(=O)c2ccc(F)cc2)CC1	inactive
CC1=C(/C=C/C(C)=C\C=C\C(C)=C\C(=O)O)C(C)(C)CCC1	inactive
C=CC(=C)CCCC(C)(C)OC(C)=O	inactive
C=CC(=O)NCOCC(C)C	inactive
CC1=CC(=O)CC(C)(C)C1(O)/C=C/C(C)=C\C(=O)O (centres undefined)	inactive
CCCCCCCCCCCC(=O)[O][Sn]([CH2]CCC)([CH2]CCC)[O]C(=O)CCCCCCCCCCC	inactive
O=S1OCCO1	inactive
Cc1ccc(S)cc1	inactive
CCCCN(CCCC)CCCOC(=O)c1ccc(N)cc1	inactive
